Test system: OR6 cells
Assay: Cytotoxic effect, WST-1 cell proliferation assay in OR6 cells
Settings: OR6 cells, 72 hours, WST-1
From the text: Assay systems using OR6 cells (HCV-O strain), 1B-4R cells (HCV-1B-4 strain), and AH1R cells (HCV-AH1R strain) as HuH-7 cell-derived full-length HCV-RNA-replicating cells, and ORL8 cells (HCV-O strain), ORL11 cells (HCV-O strain), 1B-4RL cells (HCV-1B-4 strain), and KAH5RL cells (HCV-KAH5 strain) as Li23 cell-derived full-length HCV-RNA-replicating cells were used for the quantitative analysis of anti-HCV activity and evaluation of a cytotoxic effect in the present invention. […]
metric: CC50

Would you mind telling me what CC50 value was observed for OCCCCCCC1COOC2(CCCCCCCCCCC2)OOC1 [N-251] ? 3 µM

----------
tested on: HCV-RNA replication in OR6 cells (HCV-O strain, HuH-7-derived); assay: microbe, parasite or virus in culture; settings: Hepatitis C virus, OR6, 72 h
Recorded EC50, one value per entry.
The figure you give is taken to be in nM; do not add the unit.

See these solved cases before continuing.
{"columns": ["molecule", "EC50 / nM"],
 "data": [
  ["OCCCCCCC1COOC2(CCCCCCCCCCC2)OOC1", 690],
  ["C1CCCCCC2(CCCCC1)OOCCCOO2 [N-89, 1,2,6,7-tetraoxaspiro[7,11]nonadecane]", 660]
]}

Let us move to another entry and its EC50.
Would you mind telling me what EC50 value was observed for C[C@@H]1CC[C@H]2[C@@H](C)C(=O)O[C@@H]3O[C@@]4(C)CC[C@@H]1[C@]32OO4 [artemisinin, reference compound] ? 81000

----------
assay: Cytotoxic effect, WST-1 cell proliferation assay in AH1R cells; format: cell-based; conditions: human
metric: CC50 at 72 h

Would you mind telling me what CC50 at 72 h value was observed for C1CCCCCC2(CCCCC1)OOCCCOO2 [N-89, 1,2,6,7-tetraoxaspiro[7,11]nonadecane] ? ~500 nM

----------
assay: Cytotoxic effect, WST-1 cell proliferation assay in KAH5RL cells; assay type: cell-based, human; details: human; KAH5RL cells, 72 hours, WST-1
metric: CC50 at 72 h (µM)
The figure you give is taken to be in µM; do not add the unit.

Would you mind telling me what CC50 at 72 h value was observed for OCCCCCCC1COOC2(CCCCCCCCCCC2)OOC1 ? 3.2
